# Lookup of reported binding signal keyed by entry
Target: MBP-FoxP1dN (Mus musculus, UniProt P58462 326-579)
Sequence: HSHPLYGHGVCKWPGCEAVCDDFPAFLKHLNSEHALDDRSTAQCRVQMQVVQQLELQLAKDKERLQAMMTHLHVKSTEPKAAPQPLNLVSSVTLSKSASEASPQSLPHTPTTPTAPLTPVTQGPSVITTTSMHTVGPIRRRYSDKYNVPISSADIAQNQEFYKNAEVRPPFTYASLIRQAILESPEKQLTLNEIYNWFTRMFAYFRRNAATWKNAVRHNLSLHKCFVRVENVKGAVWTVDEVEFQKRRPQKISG
Experiment: PD-seq (MBP pull-down with sequencing); 20 mM Tris-HCl pH 7.5, 100 mM NaCl, 1.5 mM MgCl2, 0.4 uM protein, 0.1 uM dsDNA library, 30 min, room temperature, amylose pull-down; high values mean tight binding
Settings: protein: recombinant; tags: His6-MBP; chain copies: 2; dsDNA, one strand shown
The full ranking holds about 16,000 sequences; the median of “rpm ratio (pull-down/input)” is about 0.94, and the highest 2% start at about 1.7. This excerpt belongs to a sample that is enriched for the highest values.

# SEQUENCE_CHAIN, binding signal
records = [
    ("GATGATTGTTCTCCCAGCTGATGAATTTAGGTACTCGAGTAAACAAATTTTCCTAATCTTTCTGTTCAAGCGCCATCTAC", "0.947 RPM ratio (pull-down/input)"),
    ("GATGATTGTTCTCCCAGCTGATGAATTAACGAGTTCGAGTAAACAAATTTTCCTAATCTTTCTGTTCAAGCGCCATCTAC", "0.92 RPM ratio (pull-down/input)"),
    ("GATGATTGTTCTCCCAGCTGATGAATTGGGGCACTCGAGTAAACAAATTTTCCTAATCTTTCTGTTCAAGCGCCATCTAC", "0.856 RPM ratio (pull-down/input)"),
    ("GATGATTGTTCTCCCAGCTGATGAATTTCCGAGATCGAGTAAACAAATTTTCCTAATCTTTCTGTTCAAGCGCCATCTAC", "0.797 RPM ratio (pull-down/input)"),
    ("GATGATTGTTCTCCCAGCTGATGAATTGAAACGCTCGAGTAAACAAATTTTCCTAATCTTTCTGTTCAAGCGCCATCTAC", "0.86 RPM ratio (pull-down/input)"),
    ("GATGATTGTTCTCCCAGCTGATGAATTTGAGCTTTCGAGTAAACAAATTTTCCTAATCTTTCTGTTCAAGCGCCATCTAC", "0.854 RPM ratio (pull-down/input)"),
    ("GATGATTGTTCTCCCAGCTGATGAATTCAGGTTCTCGAGTAAACAAATTTTCCTAATCTTTCTGTTCAAGCGCCATCTAC", "0.857 RPM ratio (pull-down/input)"),
]
